All figures here come from patent US20220356245A1.

- ASSAY_TARGET: T1, human CD47 (hCD47) expressed on cells (human, UniProt Q08722 19-323)
- T1 construct: Transfected CHO cells or endogenous CD47 of human cells; also called CHO-hCD47; CD47 on Raji cells
- TEST_DESCRIPTION: flow cytometry, Raji cells, competition with hSIRPα
REPORTED_ENDPOINT: IC50 (µg/mL)
Quick reminder: number only, in µg/mL, skip the unit.

Ask: Find the recorded IC50 belonging to h22-VH3-VL3 (candidate 22.11) (antibody, human IgG4 S228P, kappa, V domains shown, hIgG4-S228P/kappa) VH: QVQLQESGAEVKKPGASVKVSCKASGYTFTTYWMHWVRQAPGQGLEWMGMIHPNSGTTNYNEKFKSRVTMTRDTSTSTVYMELSSLRSEDTAVYYCTRSHYYDGHFSYWGQGTLVTVSS VL: EIVLTQSPDSLAVSLGERATINCKSSQSLLNSRTRKNYLAWYQQKAGQSPKLLIYWASTRESGVPDRFSGSGSGTDFTLTIDSLQAEDVAVYYCKQSYNLWTFGGGTKVEIKR and report it.
Reply: 0.096
